FYI, the data here is from patent US10519141B2.

# target entity: VEGFR2 (KDR) kinase (Homo sapiens, UniProt P35968)
# Construct: purchased Life Technologies
# Sequence (P35968 20-1356): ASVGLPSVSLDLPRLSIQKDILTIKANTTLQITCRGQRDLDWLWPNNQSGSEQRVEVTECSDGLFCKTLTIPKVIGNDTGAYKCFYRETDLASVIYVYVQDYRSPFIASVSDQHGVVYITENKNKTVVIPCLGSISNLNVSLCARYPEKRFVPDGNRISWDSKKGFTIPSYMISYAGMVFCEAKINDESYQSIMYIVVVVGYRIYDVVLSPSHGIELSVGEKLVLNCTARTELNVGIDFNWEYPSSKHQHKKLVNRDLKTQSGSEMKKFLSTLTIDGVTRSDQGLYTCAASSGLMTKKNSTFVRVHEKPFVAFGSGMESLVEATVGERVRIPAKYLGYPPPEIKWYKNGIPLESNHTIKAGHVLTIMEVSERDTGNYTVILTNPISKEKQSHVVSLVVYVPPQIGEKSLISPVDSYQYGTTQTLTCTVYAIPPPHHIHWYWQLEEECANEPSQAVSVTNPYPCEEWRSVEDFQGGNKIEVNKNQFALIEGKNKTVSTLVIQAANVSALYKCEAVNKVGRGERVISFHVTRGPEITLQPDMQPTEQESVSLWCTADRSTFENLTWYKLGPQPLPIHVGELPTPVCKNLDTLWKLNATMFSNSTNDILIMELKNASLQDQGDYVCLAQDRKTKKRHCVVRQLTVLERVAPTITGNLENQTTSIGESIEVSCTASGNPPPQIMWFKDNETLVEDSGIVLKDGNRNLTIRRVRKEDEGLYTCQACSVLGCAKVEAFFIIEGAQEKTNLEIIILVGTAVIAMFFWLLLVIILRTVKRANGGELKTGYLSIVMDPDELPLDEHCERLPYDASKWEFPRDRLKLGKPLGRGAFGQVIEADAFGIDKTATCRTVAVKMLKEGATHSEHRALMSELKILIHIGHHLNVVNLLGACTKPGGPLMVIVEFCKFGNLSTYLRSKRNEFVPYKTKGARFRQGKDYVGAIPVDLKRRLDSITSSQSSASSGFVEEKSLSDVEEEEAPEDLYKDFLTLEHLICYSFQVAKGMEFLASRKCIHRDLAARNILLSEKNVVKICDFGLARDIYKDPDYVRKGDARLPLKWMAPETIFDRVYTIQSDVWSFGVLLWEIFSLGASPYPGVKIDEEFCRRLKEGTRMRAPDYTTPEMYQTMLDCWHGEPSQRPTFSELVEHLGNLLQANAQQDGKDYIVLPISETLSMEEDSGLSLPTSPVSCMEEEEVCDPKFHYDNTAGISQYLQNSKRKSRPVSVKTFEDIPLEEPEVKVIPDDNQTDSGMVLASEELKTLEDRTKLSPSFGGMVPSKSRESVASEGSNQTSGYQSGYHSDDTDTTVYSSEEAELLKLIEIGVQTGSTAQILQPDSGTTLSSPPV
# procedure details: Z'-LYTE kinase assay, inhibitory activity for VEGFR2 kinase
# Assay type: biochemical
# condition: compound concentration of 100 nM, read-out: Degree of inhibition (%)
Lab note: compare inhibition at 0.1 µM against 60%. Equal or greater, write y. Smaller, write n.

compound: Cc1ccc2c(-c3nc(Nc4cc(C5CC5)cc(N5CCN(CCO)CC5)c4)ncc3Cl)c[nH]c2c1
label class: n

compound: Cc1ccc2c(-c3nc(Nc4cc(C5CC5)cc(N5CCN(C(C)(C)CO)CC5)c4)ncc3Cl)c[nH]c2c1
label class: y

compound: Cc1ccc2c(-c3nc(Nc4cc(CN5CCN(C(C)(C)CO)CC5)cc(C5CC5)c4)ncc3Cl)c[nH]c2c1
label class: y

compound: Cc1ccc2c(-c3nc(Nc4cc(C5CC5)cc(N5CCC(N(C)C)C5)c4)ncc3Cl)c[nH]c2c1 (stereo not shown)
label class: n

compound: CC(C)(CO)N1CCN(Cc2cc(Nc3ncc(Cl)c(-c4c[nH]c5ccccc45)n3)cc(C3CC3)c2)CC1
label class: y

compound: Cc1ccc2c(-c3nc(Nc4cc(C5CC5)cc(N5CCC(N(C)C)CC5)c4)ncc3Cl)c[nH]c2c1
label class: y

compound: OCCN1CCN(c2cc(Nc3ncc(Cl)c(-c4c[nH]c5cc(F)ccc45)n3)cc(C3CC3)c2)CC1
label class: y

###

# target entity: AXL kinase (Homo sapiens)
# Construct: purchased Life Technologies
# Sequence (P30530 26-894): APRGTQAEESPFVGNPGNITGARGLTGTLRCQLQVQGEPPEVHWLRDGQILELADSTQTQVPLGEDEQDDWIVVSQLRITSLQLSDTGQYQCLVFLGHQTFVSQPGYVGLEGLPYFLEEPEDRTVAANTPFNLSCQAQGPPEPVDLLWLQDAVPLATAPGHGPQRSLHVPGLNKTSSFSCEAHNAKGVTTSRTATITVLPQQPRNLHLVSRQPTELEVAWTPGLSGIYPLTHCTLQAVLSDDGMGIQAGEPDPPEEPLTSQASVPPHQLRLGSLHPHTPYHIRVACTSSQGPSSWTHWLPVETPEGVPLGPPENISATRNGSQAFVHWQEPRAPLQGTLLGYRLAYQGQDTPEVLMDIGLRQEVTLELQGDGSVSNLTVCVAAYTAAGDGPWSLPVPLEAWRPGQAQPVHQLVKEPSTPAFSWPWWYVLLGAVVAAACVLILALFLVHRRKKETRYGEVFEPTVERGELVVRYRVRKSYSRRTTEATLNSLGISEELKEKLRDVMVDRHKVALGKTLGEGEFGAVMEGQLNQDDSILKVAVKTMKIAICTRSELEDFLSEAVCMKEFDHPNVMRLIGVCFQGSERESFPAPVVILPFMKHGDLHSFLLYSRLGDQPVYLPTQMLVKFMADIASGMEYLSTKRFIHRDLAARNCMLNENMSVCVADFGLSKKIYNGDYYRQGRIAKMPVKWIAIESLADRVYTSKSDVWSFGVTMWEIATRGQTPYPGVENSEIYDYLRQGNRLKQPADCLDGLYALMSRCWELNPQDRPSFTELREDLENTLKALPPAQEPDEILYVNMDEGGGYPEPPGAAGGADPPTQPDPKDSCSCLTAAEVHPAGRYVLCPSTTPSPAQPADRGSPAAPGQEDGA
# procedure details: Z'-LYTE kinase assay, inhibitory activity for AXL kinase
# Format: biochemical
# condition: compound concentration of 100 nM, read-out: Degree of inhibition (%)
observation type: inhibition at 0.1 µM (%)

compound: CC(C)(CO)N1CCN(Cc2cc(Nc3ncc(Cl)c(-c4c[nH]c5ccccc45)n3)cc(C3CC3)c2)CC1
observation type: inhibition at 0.1 µM
readout value: 51
--
compound: Cc1ccc2c(-c3nc(Nc4cc(C5CC5)cc(N5CCN(C(C)(C)CO)CC5)c4)ncc3Cl)c[nH]c2c1
observation type: inhibition at 0.1 µM
readout value: 66
--
compound: Cc1ccc2c(-c3nc(Nc4cc(CN5CCN(C(C)(C)CO)CC5)cc(C5CC5)c4)ncc3Cl)c[nH]c2c1
observation type: inhibition at 0.1 µM
readout value: 50
--
compound: Cc1ccc2c(-c3nc(Nc4cc(C5CC5)cc(N5CCN(CCO)CC5)c4)ncc3Cl)c[nH]c2c1
observation type: inhibition at 0.1 µM
readout value: 56
--
compound: OCCN1CCN(c2cc(Nc3ncc(Cl)c(-c4c[nH]c5cc(F)ccc45)n3)cc(C3CC3)c2)CC1
observation type: inhibition at 0.1 µM
readout value: 52
--
compound: Cc1ccc2c(-c3nc(Nc4cc(C5CC5)cc(N5CCC(N(C)C)C5)c4)ncc3Cl)c[nH]c2c1 (stereo not shown)
observation type: inhibition at 0.1 µM
readout value: 27
--
compound: Cc1ccc2c(-c3nc(Nc4cc(C5CC5)cc(N5CCC(N(C)C)CC5)c4)ncc3Cl)c[nH]c2c1
observation type: inhibition at 0.1 µM
readout value: 49

###

# Test system: MV4-11 cell line
# procedure details: Inhibitory activity in cell growth, MTS test, MV4-11
# Type: cell-based
# condition: Homo sapiens, 72 h, incubation three days
observation type: GI50 (nM)

molecule: CCc1cc(Nc2ncc(Cl)c(-c3c[nH]c4cc(C)ccc34)n2)cc(OCCN2CCC(O)CC2)c1
readout value: 0.8
--
molecule: COc1cc(Nc2ncc(Cl)c(-c3c[nH]c4ccccc34)n2)cc(C(=O)N2CCN(CCO)CC2)c1
readout value: 1.2
--
molecule: CN(C)C1CCN(c2cccc(Nc3ncc(Cl)c(-c4c[nH]c5ccccc45)n3)c2)C1 (stereo not shown)
readout value: 0.8
--
molecule: Cc1ccc2c(-c3nc(Nc4cc(O[C@@H]5CCN(CCO)C5)cc(C5CC5)c4)ncc3Cl)c[nH]c2c1
readout value: 1.1
